Attribute: AC50
Target: UniProtKB O75030
Sequence (O75030 whole entry): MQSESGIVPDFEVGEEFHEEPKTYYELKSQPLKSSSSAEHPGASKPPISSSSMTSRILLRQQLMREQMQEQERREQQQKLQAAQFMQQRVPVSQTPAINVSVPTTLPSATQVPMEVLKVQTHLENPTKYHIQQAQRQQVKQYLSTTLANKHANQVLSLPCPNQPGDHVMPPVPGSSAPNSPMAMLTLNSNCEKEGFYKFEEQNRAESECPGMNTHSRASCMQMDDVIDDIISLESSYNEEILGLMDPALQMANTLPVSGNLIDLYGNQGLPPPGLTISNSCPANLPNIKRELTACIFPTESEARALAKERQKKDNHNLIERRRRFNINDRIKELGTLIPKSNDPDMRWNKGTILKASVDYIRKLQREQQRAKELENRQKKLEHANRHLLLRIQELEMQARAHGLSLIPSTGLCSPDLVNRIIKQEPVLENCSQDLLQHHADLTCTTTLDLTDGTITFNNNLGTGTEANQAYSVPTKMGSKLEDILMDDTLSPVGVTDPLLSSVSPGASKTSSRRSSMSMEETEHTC
Test: TRPM1 promoter luciferase signal decrease, dose response, MITF inhibitor project, cell-based, SK-MEL-5, cherry-picked, set 3 (AID 493073)
Type: functional
Activity calls are given as the source filed them. How the calls were made is not given here.

Record excerpt, results attached:
> print(dat)
                                 mol.smiles            target            result
1  CCN(CC)S(=O)(=O)c1ccc(NC(=O)c2cccnc2Cl)c(NC(=O)c2cccnc2Cl)c1  UniProtKB O75030  7.02 µM (active)
2  Cc1cc(C)n(-c2ccc(C(=O)Nc3ccc(C)c(S(=O)(=O)N4CCOCC4)c3)cc2)n1  UniProtKB O75030  4.54 µM (active)

Q: Consider the molecule `CC(=O)Cn1ncc(Br)c(Br)c1=O` and give its recorded AC50.
Ans: 15.8 µM (active)

The origin of these recorded values is ChEMBL document CHEMBL1201862.
